Assay target: Steroid 17-alpha-hydroxylase/17,20 lyase (Homo sapiens)
Sequence (P05093 whole entry): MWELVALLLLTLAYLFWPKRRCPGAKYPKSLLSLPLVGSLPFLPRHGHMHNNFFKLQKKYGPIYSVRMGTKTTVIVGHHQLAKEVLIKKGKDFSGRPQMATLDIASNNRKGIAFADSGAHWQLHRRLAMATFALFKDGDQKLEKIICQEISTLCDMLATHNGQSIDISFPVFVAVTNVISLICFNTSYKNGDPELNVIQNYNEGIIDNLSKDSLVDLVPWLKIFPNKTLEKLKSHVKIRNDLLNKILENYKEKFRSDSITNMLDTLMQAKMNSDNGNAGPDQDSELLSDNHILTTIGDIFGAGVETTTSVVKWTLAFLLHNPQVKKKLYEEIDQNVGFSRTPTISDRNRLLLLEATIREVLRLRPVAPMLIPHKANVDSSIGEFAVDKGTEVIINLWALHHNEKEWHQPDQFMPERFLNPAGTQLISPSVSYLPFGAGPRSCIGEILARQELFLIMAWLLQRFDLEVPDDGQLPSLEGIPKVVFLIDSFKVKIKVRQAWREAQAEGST
Method summary: Inhibition of CYP17 in human testicular microsomes using 17alpha-hydroxypregnenolone as substrate assessed as decrease in DHEA levels at 10 nM after 90 mins by ELISA relative to control
Parameters: species or system Testis
Test context: 1.5 h
Assay metric: inhibition at 0.01 µM

[
  {
    "Molecule": "COC1CC2[C@@H]3CC=C(n4ccnc4)[C@@]3(C)CC[C@@H]2[C@@]2(C)CCC3CC312 (single isomer, unassigned)",
    "Assay metric": "inhibition at 0.01 µM",
    "Result": "≥ 80%"
  },
  {
    "Molecule": "CCCOc1cncc(C2=CC[C@H]3[C@@H]4CCN5CCCCC[C@]5(C)[C@H]4CC[C@]23C)c1",
    "Assay metric": "inhibition at 0.01 µM",
    "Result": "50 to 80%"
  },
  {
    "Molecule": "C[C@]12CCCCC1C(=O)C[C@@H]1[C@@H]2CC[C@]2(C)C(n3ccnc3)=CC[C@@H]12 (some centres undefined)",
    "Assay metric": "inhibition at 0.01 µM",
    "Result": "≥ 80%"
  },
  {
    "Molecule": "C[C@]12CCCCC1=CC[C@@H]1[C@@H]2CC[C@]2(C)C(c3cccnc3)=CC[C@@H]12",
    "Assay metric": "inhibition at 0.01 µM",
    "Result": "50 to 80%"
  },
  {
    "Molecule": "CCCOc1cncc(C2=CC[C@H]3[C@@H]4CCC5=CCN(C)CC[C@]5(C)[C@H]4CC[C@]23C)c1",
    "Assay metric": "inhibition at 0.01 µM",
    "Result": "1 to 50%"
  },
  {
    "Molecule": "CCc1cncc(C2=CC[C@H]3[C@@H]4CCC5=CC(=O)NCC[C@]5(C)[C@H]4CC[C@]23C)c1",
    "Assay metric": "inhibition at 0.01 µM",
    "Result": "≥ 80%"
  },
  {
    "Molecule": "C[C@]12CCCCC[C@@H]1CC[C@@H]1[C@@H]2CC[C@]2(C)C(c3cnccc3Cl)=CC[C@@H]12",
    "Assay metric": "inhibition at 0.01 µM",
    "Result": "1 to 50%"
  },
  {
    "Molecule": "C[C@]12CCNC(=O)C=C1CC[C@@H]1[C@@H]2CC[C@]2(C)C(c3cccnc3)=CC[C@@H]12",
    "Assay metric": "inhibition at 0.01 µM",
    "Result": "≥ 80%"
  },
  {
    "Molecule": "C[C@]12CCCC(=O)CC1=CC[C@@H]1[C@@H]2CC[C@]2(C)C(c3cnccn3)=CC[C@@H]12",
    "Assay metric": "inhibition at 0.01 µM",
    "Result": "≥ 80%"
  },
  {
    "Molecule": "C[C@]12CCCC(=O)CC1=CC[C@@H]1[C@@H]2CC[C@]2(C)C(n3ccnc3)=CC[C@@H]12",
    "Assay metric": "inhibition at 0.01 µM",
    "Result": "≥ 80%"
  },
  {
    "Molecule": "COc1cncc(C2=CC[C@H]3[C@@H]4CCN5C(=O)CCCC[C@]5(C)[C@H]4CC[C@]23C)c1",
    "Assay metric": "inhibition at 0.01 µM",
    "Result": "≥ 80%"
  },
  {
    "Molecule": "Cc1cncc(C2=CC[C@H]3[C@@H]4CC[C@H]5CCCCC[C@]5(C)[C@H]4CC[C@]23C)c1",
    "Assay metric": "inhibition at 0.01 µM",
    "Result": "1 to 50%"
  },
  {
    "Molecule": "C[C@]12CC(=O)C[C@@H]1CC[C@@H]1[C@@H]2CC[C@]2(C)C(n3ccnn3)=CC[C@@H]12",
    "Assay metric": "inhibition at 0.01 µM",
    "Result": "1 to 50%"
  },
  {
    "Molecule": "CN1C(=O)CCC[C@@]2(C)C1=CC[C@@H]1[C@@H]2CC[C@]2(C)C(c3cccnc3)=CC[C@@H]12",
    "Assay metric": "inhibition at 0.01 µM",
    "Result": "≥ 80%"
  },
  {
    "Molecule": "CC(=O)O[C@H]1CC[C@@]2(C)C(=CC[C@H]3C4=CC=C(c5cccnc5)[C@@]4(C)CC[C@@H]32)C1",
    "Assay metric": "inhibition at 0.01 µM",
    "Result": "1 to 50%"
  },
  {
    "Molecule": "C[C@]12CC[C@H]3[C@@H](CCC4=CC(=O)NCC[C@@]43C)C1=CC=C2c1cccnc1",
    "Assay metric": "inhibition at 0.01 µM",
    "Result": "50 to 80%"
  },
  {
    "Molecule": "CN1CC[C@@]2(C)C(=CC1=O)CC[C@H]1C3=CC=C(c4cnccn4)[C@@]3(C)CC[C@@H]12",
    "Assay metric": "inhibition at 0.01 µM",
    "Result": "≥ 80%"
  },
  {
    "Molecule": "C[C@]12CCNC(=O)C=C1CC[C@@H]1[C@@H]2CC[C@]2(C)C(n3cnc4ccccc43)=CC[C@@H]12",
    "Assay metric": "inhibition at 0.01 µM",
    "Result": "1 to 50%"
  },
  {
    "Molecule": "Cc1cncc(C2=CC[C@H]3[C@@H]4CCC5=CC(=O)N(C)CC[C@]5(C)[C@H]4CC[C@]23C)c1",
    "Assay metric": "inhibition at 0.01 µM",
    "Result": "50 to 80%"
  },
  {
    "Molecule": "Cc1cncc(C2=CC[C@H]3[C@@H]4CCN5CCCCC[C@]5(C)[C@H]4CC[C@]23C)c1",
    "Assay metric": "inhibition at 0.01 µM",
    "Result": "1 to 50%"
  },
  {
    "Molecule": "COc1cncc(C2=CC=C3[C@@H]4CCC5=CC(=O)CC[C@]5(C)[C@H]4CC[C@]23C)c1",
    "Assay metric": "inhibition at 0.01 µM",
    "Result": "50 to 80%"
  },
  {
    "Molecule": "C[C@]12CC(O)C[C@@H]1CC[C@@H]1[C@@H]2CC[C@]2(C)C(n3ccnn3)=CC[C@@H]12 (some centres undefined)",
    "Assay metric": "inhibition at 0.01 µM",
    "Result": "≤ 11%"
  },
  {
    "Molecule": "Cc1cncc(C2=CC[C@H]3[C@@H]4CCC5=CN(C)CCC[C@]5(C)[C@H]4CC[C@]23C)c1",
    "Assay metric": "inhibition at 0.01 µM",
    "Result": "1 to 50%"
  },
  {
    "Molecule": "COc1cncc(C2=CC[C@H]3[C@@H]4CC[C@H]5COCCC[C@]5(C)[C@H]4CC[C@]23C)c1",
    "Assay metric": "inhibition at 0.01 µM",
    "Result": "50 to 80%"
  },
  {
    "Molecule": "CCc1cncc(C2=CC[C@H]3[C@@H]4CCN5C(=O)CCCC[C@]5(C)[C@H]4CC[C@]23C)c1",
    "Assay metric": "inhibition at 0.01 µM",
    "Result": "≥ 80%"
  },
  {
    "Molecule": "Cc1cncc(C2=CC[C@H]3[C@@H]4CCC5N(C)C(=O)COC[C@]5(C)[C@H]4CC[C@]23C)c1 (some centres undefined)",
    "Assay metric": "inhibition at 0.01 µM",
    "Result": "1 to 50%"
  },
  {
    "Molecule": "Cc1ccncc1C1=CC[C@H]2[C@@H]3CC[C@H]4CCCCC[C@]4(C)[C@H]3CC[C@]12C",
    "Assay metric": "inhibition at 0.01 µM",
    "Result": "1 to 50%"
  },
  {
    "Molecule": "C[C@]12CCNC(=O)CC[C@@H]1CC[C@@H]1[C@@H]2CC[C@]2(C)C(c3cccnc3)=CC[C@@H]12",
    "Assay metric": "inhibition at 0.01 µM",
    "Result": "50 to 80%"
  },
  {
    "Molecule": "COc1cncc(C2=CC[C@H]3[C@@H]4CC=C5CCCC[C@]5(C)[C@H]4CC[C@]23C)c1",
    "Assay metric": "inhibition at 0.01 µM",
    "Result": "50 to 80%"
  }
]

----------
Assay target: CYP21 (steroid 21-hydroxylase) (Homo sapiens, UniProt P08686)
Sequence (P08686 whole entry): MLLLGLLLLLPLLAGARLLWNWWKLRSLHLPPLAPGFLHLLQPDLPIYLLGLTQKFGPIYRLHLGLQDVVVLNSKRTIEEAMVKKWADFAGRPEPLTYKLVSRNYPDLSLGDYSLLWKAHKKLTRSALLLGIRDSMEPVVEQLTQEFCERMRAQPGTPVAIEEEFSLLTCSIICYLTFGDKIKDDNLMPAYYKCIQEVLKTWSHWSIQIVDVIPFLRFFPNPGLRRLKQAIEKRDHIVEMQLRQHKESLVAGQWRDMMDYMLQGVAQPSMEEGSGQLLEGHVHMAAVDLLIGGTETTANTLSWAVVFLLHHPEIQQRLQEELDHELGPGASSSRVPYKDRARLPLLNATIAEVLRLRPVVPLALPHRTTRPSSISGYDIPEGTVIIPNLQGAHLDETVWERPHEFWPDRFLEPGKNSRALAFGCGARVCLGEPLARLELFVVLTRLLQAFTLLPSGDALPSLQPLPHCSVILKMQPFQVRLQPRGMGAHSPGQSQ
Method summary: Inhibition of human CYP21 transfected in HEK293 cells assessed as decrease in conversion of progesterone to 11-deoxycorticosterone at 100 nM preincubated for 5 hrs followed by progesterone addition measured after 20 hrs by ELISA relative to control
Assay type: cell-based
Test context: HEK293 cells transfected with human CYP21, probe progesterone
Below: a set of entries, each annotated with reported inhibition at 20 h, 0.1 µM.
Assay metric: inhibition at 20 h, 0.1 µM

[
  {
    "Compound": "CN1CC[C@@]2(C)C(=CC1=O)CCC1[C@@H]2CC[C@]2(C)C(c3cccnc3)=CC[C@@H]12 (single isomer, unassigned)",
    "Result": "≥ 30%"
  },
  {
    "Compound": "CN1CC[C@@]2(C)C(=CC1=O)CC[C@H]1C3=CC=C(n4ccnc4)[C@@]3(C)CC[C@@H]12",
    "Result": "≥ 30%"
  },
  {
    "Compound": "CCc1cncc(C2=CC[C@H]3[C@@H]4CCC5=CC(=O)N(C)CC[C@]5(C)[C@H]4CC[C@]23C)c1",
    "Result": "≥ 30%"
  },
  {
    "Compound": "C[C@]12CC[C@H]3[C@@H](CCC4=C/C(=N/O)CC[C@@]43C)C1=CC=C2c1cccnc1",
    "Result": "< 30%"
  }
]
